TEST SYSTEM: HLA-B*07:02
ASSAY REMARKS: IEDB peptide-MHC binding, purified MHC/direct/fluorescence; filed as Kd, often an IC50 or EC50 that approximates it; bounds were set here for any values at or beyond the usual limits of such assays
MEASUREMENT PARAMETERS: source organism: Rickettsia sibirica
VALUE KIND: pKd
In textbook form, pKd equals minus log to base ten of the concentration in mol/L.

# pKd (sequence: ASDRISGIL ) is 4.84

* * *

TEST SYSTEM: HLA-B*51:01
ASSAY REMARKS: IEDB peptide-MHC binding, purified MHC/competitive/fluorescence; filed as Kd, often an IC50 or EC50 that approximates it; bounds were set here for any values at or beyond the usual limits of such assays
MEASUREMENT PARAMETERS: source organism: Listeria monocytogenes FSL J1-194
VALUE KIND: Kd

Reported Kd (HLA-B*51:01) for entry LKYAPFFQV is ≥ 20 µM

* * *

TEST SYSTEM: HLA-A*69:01
ASSAY REMARKS: IEDB peptide-MHC binding, purified MHC/direct/fluorescence; filed as Kd, often an IC50 or EC50 that approximates it; bounds were set here for any values at or beyond the usual limits of such assays
MEASUREMENT PARAMETERS: source organism: Escherichia coli O157:H7
VALUE KIND: pKd
In textbook form, pKd equals minus log to base ten of the concentration in mol/L.

# pKd (sequence: IAIPAHVRL ) is 6.64

* * *

# maps each entry to its Kd
TEST SYSTEM: HLA-B*18:01
ASSAY REMARKS: IEDB peptide-MHC binding, purified MHC/competitive/fluorescence; filed as Kd, often an IC50 or EC50 that approximates it; bounds were set here for any values at or beyond the usual limits of such assays
MEASUREMENT PARAMETERS: source organism: Homo sapiens

SLFNWLWYE ... ≥ 20 µM

Now for another entry.
Reported Kd (HLA-B*18:01) for entry YSDNEMLTH is ≥ 20 µM

* * *

TEST SYSTEM: HLA-A*03:01
ASSAY REMARKS: IEDB peptide-MHC binding, purified MHC/direct/fluorescence; filed as Kd, often an IC50 or EC50 that approximates it; bounds were set here for any values at or beyond the usual limits of such assays
MEASUREMENT PARAMETERS: source organism: Reston ebolavirus
VALUE KIND: Kd

# Kd (sequence: WFQRIPLQW ) is ≥ 20 µM

* * *

TEST SYSTEM: HLA-B*44:03
ASSAY REMARKS: IEDB peptide-MHC binding, purified MHC/competitive/radioactivity; filed as Kd, often an IC50 or EC50 that approximates it; bounds were set here for any values at or beyond the usual limits of such assays
MEASUREMENT PARAMETERS: source organism: Lymphocytic choriomeningitis virus (strain Armstrong)
VALUE KIND: Kd (µM)
Write down the numeric answer in µM and omit the unit.

# Kd (sequence: REFVATTRTL ) is 7.56

* * *

TEST SYSTEM: HLA-A*02:03
ASSAY REMARKS: IEDB peptide-MHC binding, purified MHC/competitive/fluorescence; filed as Kd, often an IC50 or EC50 that approximates it; bounds were set here for any values at or beyond the usual limits of such assays
MEASUREMENT PARAMETERS: source organism: Human immunodeficiency virus 1
# maps each entry to its Kd

GLGQYIYET ... 294 nM

Now for another entry.
# Kd (sequence: EELKSLFNTV ) is ≥ 20000 nM
